Where do the numbers come from? From patent US9206432B2.

System: lacZ under control of the tetA promoter (PtetA) in E. coli KM3
Assay type: cell-based
Details: Table 4; sulfometuron 20 ppm; 48 hrs at 30° C.
TEST_READOUT: relative β-galactosidase activity, inducer Sm
Numbers only.

Any idea what its relative β-galactosidase activity, inducer Sm is? The molecule is L1-44: SU-responsive TetR(B) variant, library L1 hit, SEQ ID NO: 13 (protein, Sulfonylurea responsive repressor L1-44) MGSRLDKSKVINSALELLNEVGIEGLTTRKLAQKLGVEQPTLYWHVKNKRALLDALAIEMLDRHATHFCPLEGESWQDFLRNNAKSYRCALLSHRDGAKVYLGTAVTEKQYETAENQLAFLCQQGFSLENALYAVKAVAGFTLGCVLWDQESQVAKEERETPTTASMPPLLRQAVELADHQGAEPAFLFGLELIICGLEKQLKCESGS
0.4
